# key: entry, value: inhibition
- system_name: GABA-A receptor; anion channel (Bos taurus) (UniProt P10063+P08220+P20237+P08219+P10064+P22300)
- test_details: In vitro inhibition of specific binding of [3H]flunitrazepam to benzodiazepine receptor in bovine cerebral cortex membrane at a concentration of 10 uM.
- Format: cell membranes
property: inhibition (%)

sample_smiles	display_unit	readout_value
Cn1cc(C(=O)C(=O)NCCc2ccccc2)c2ccccc21	%	42
COc1ccc(CCNC(=O)C(=O)c2cn(C)c3ccccc23)cc1OC	%	51
O=C(NCCc1c[nH]c2ccccc12)C(=O)c1c[nH]c2ccc(Br)cc12	%	62

* * *

- system_name: GABA-A receptor; anion channel
- test_details: In vitro inhibition of [3H]flunitrazepam binding to GABA-A benzodiazepine receptor of bovine cerebral cortical membranes at 10 uM
Categorized via Ki: zone 1: < 300 nM; zone 2: ≥ 300 nM and < 1000 nM; zone 3: ≥ 1000 nM

sample_smiles	system_name	class_label
CCOC(=O)c1ncn2c1CN(C)C(=O)c1cc(F)ccc1-2	GABA-A receptor; anion channel	zone 1
O=C(NCCc1c[nH]c2ccccc12)C(=O)c1c[nH]c2ccc([N+](=O)[O-])cc12	GABA-A receptor; anion channel	zone 2
O=C(NCCc1ccc(O)c(O)c1)C(=O)c1c[nH]c2ccc([N+](=O)[O-])cc12	GABA-A receptor; anion channel	zone 1
O=C(NCCc1ccc(Cl)cc1)C(=O)c1c[nH]c2ccccc12	GABA-A receptor; anion channel	zone 2
O=C(NCCc1ccc(O)cc1)C(=O)c1c[nH]c2ccc([N+](=O)[O-])cc12	GABA-A receptor; anion channel	zone 2
O=C(NCCc1ccc(O)cc1)C(=O)c1c[nH]c2ccc(Cl)cc12	GABA-A receptor; anion channel	zone 3
COc1ccc(CCNC(=O)C(=O)c2c[nH]c3ccccc23)cc1	GABA-A receptor; anion channel	zone 1
O=C(NCCc1ccc(O)cc1)C(=O)c1c[nH]c2ccccc12	GABA-A receptor; anion channel	zone 3
COc1ccc(CCNC(=O)C(=O)c2c[nH]c3ccccc23)cc1OC	GABA-A receptor; anion channel	zone 2
O=C(NCCc1ccccc1)C(=O)c1c[nH]c2ccccc12	GABA-A receptor; anion channel	zone 2
O=C(NCCc1ccc(O)cc1)C(=O)c1c[nH]c2ccc(Br)cc12	GABA-A receptor; anion channel	zone 3
COc1cccc(CCNC(=O)C(=O)c2c[nH]c3ccccc23)c1	GABA-A receptor; anion channel	zone 1
COc1ccc(CCNC(=O)C(=O)c2c[nH]c3ccc(Cl)cc23)cc1OC	GABA-A receptor; anion channel	zone 2
O=C(NCCc1c[nH]c2ccccc12)C(=O)c1c[nH]c2ccccc12	GABA-A receptor; anion channel	zone 3
CN1C(=O)CN=C(c2ccccc2)c2cc(Cl)ccc21	GABA-A receptor; anion channel	zone 1
O=C(NCCc1ccc(O)c(O)c1)C(=O)c1c[nH]c2ccccc12	GABA-A receptor; anion channel	zone 3
O=C(NCCc1ccc(O)c(O)c1)C(=O)c1c[nH]c2ccc(Br)cc12	GABA-A receptor; anion channel	zone 3

* * *

- system_name: GABA-A receptor; anion channel (Bos taurus) (UniProt P10063+P08220+P20237+P08219+P10064+P22300)
- test_details: In vitro inhibition of specific binding of [3H]flunitrazepam to benzodiazepine receptor in bovine cerebral cortex membrane at a concentration of 10 uM.
- Assay type: cell membranes
# key: entry, value: inhibition

sample_smiles	inhibition (%)
O=C(NCCc1c[nH]c2ccccc12)C(=O)c1c[nH]c2ccc([N+](=O)[O-])cc12	90
COc1cccc(CCNC(=O)C(=O)c2c[nH]c3ccccc23)c1	97
Cn1cc(C(=O)C(=O)NCCc2ccc(O)cc2)c2ccccc21	58
COc1ccc(CCNC(=O)C(=O)c2c[nH]c3ccccc23)cc1OC	96
